Values were extracted from paper PMC5540273.

test system: PDPK1; settings: concentration: 1 μM, replicates: in singlicate; n = 1;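 also: KINOMEscan kinase panel screen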
Reported %Inh is given for each of the following compounds.
Number in %, nothing else.

- compound: "CC(=O)Nc1cn2nc(Oc3cccc(NC(=O)c4cccc(C(F)(F)F)c4)c3)ccc2n1"
  unitText: "%"
  %Inh: 9
- compound: "O=C(Nc1n[nH]c2nc(-c3cccc(O)c3)ccc12)C1CC1 [SB-711805]"
  unitText: "%"
  %Inh: 5
- compound: "Nc1ncc(-c2cn[nH]c2)c2scc(-c3ccc4c(c3)CCN4C(=O)Cc3ccccc3)c12 [GSK2593067]"
  unitText: "%"
  %Inh: 65
- compound: "COc1cccc(CC(=O)N2CCc3cc(-c4cn(C)c5ncnc(N)c45)ccc32)c1 [GSK2608899]"
  unitText: "%"
  %Inh: 20

Turning now to a further record.
Lab note: need %Inh with PDPK1 for entry Cn1cc(-c2cnc(N)c3c(-c4ccc5c(c4)CCN5C(=O)Cc4ccccc4)csc23)cn1 [GSK2593074] , please look it up.
56

---

test system: IRAK3; conditions: concentration: 1 μM, replicates: in singlicate; n = 1
Reported %Inh is given for each of the following compounds.
Number in %, nothing else.

# example entries with known answers
- compound: "Cc1cc(-c2c(-c3ccc(F)cc3)ncn2CCCN2CCOCC2)nc(N)n1 [SB-222517]"
  assayedTarget: "IRAK3"
  %Inh, %: 0
- compound: "CCNc1nccc(-c2c(-c3ccc(F)cc3)ncn2C2CCN(C)CC2)n1"
  assayedTarget: "IRAK3"
  %Inh, %: 21
- compound: "Nc1cccc(-c2ccc3c(N)n[nH]c3c2)c1 [GSK2193613]"
  assayedTarget: "IRAK3"
  %Inh, %: 0
- compound: "CSc1ccc(NC2=C(c3ccc(Cl)cc3)C(=O)NC2=O)cc1 [SB-317658]"
  assayedTarget: "IRAK3"
  %Inh, %: 0
- compound: "Cc1ccc(-c2ccc3occ(-c4ccc(S(C)=O)cc4)c3c2)nn1 (centres unmarked)"
  assayedTarget: "IRAK3"
  %Inh, %: 0

Which %Inh is reported for this compound? COc1cccc(C2=C(Nc3cccc(O)c3)C(=O)NC2=O)c1 [SB-390771]
9

Follow-up entry: COc1cccc(-c2nc(-c3ccccc3)[nH]c2-c2ccncc2)c1 [SB-610250]
0

Follow-up entry: O=C(Nc1n[nH]c2cc(-c3cccs3)ccc12)C1CC1 [SB-731284]
9

Follow-up entry: Cc1cccc(Nc2nc(NCCN)ncc2C(N)=O)c1 [GSK1292139]
0

Follow-up entry: CN(c1ccc(NC(=O)N2CCN(CCCN3CCOCC3)CC2)cc1)c1ccnc(Nc2ccc(CS(C)(=O)=O)cc2)n1.Cl [GW830899]
50

---

system: NLK; settings: concentration: 1 μM, replicates: in singlicate; n = 1
propertyName: %Inh (%)
Number in %, nothing else.

# example entries with known answers
- compound: "COc1cc(Nc2nccc(N3CCC(NC(=O)Nc4ccc5c(c4)OCO5)C3)n2)cc(OC)c1OC (stereo not drawn)"
  unitText: "%"
  result: 0
- compound: "CN1CCN(Cc2ccc(NC(=O)Nc3ccc(N(C)c4ccnc(Nc5ccc(CS(C)(=O)=O)cc5)n4)cc3)cc2)CC1.Cl"
  unitText: "%"
  result: 0

Which %Inh is reported for this compound? COC(=O)Nc1nc2ccc(Oc3ccc(NC(=O)Nc4cc(C(F)(F)F)ccc4F)cc3)cc2[nH]1.Cl
34
